ASSAY REMARKS: chemical genetic growth profiling, strain panel (AID 1159580);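 note: tested at 20 µM; growth read once vehicle control cultures reached saturation at 30 °C; 1 = growth at the plate median or of vehicle wells; lower values mean less growth of the strain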
EXPERIMENTAL CONTEXT: S. cerevisiae deletion strains, growth OD, locus YLR384C, strain iki3, stronger effect = lower value
Out of some 5,500 compounds screened, about 2,000 (36%) were called active. About 18% were inconclusive and are not listed. The list shows a part of the results.
Items are presented alongside their recorded normalized growth.
QUANTITY NAME: normalized growth

| MOLECULE | QUANTITY NAME | READOUT VALUE |
| --- | --- | --- |
| COC1C(O)C(O[C@H]2CC[C@]3(C=O)C4C(CC[C@]3(O)C2)[C@@]2(O)CC[C@H](C3=CC(=O)OC3)[C@@]2(C)C[C@H]4OC(C)=O)OC(C)C1OC(C)=O (stereo partly drawn) | normalized growth | 0.987 (inactive) |
| NCCCN | normalized growth | 0.993 (inactive) |
| C[C@@H]1O[C@@H](O[C@H]2CC[C@]3(C=O)C4CC[C@]5(C)[C@@H](C6=CC(=O)OC6)CC[C@]5(O)C4CC[C@]3(O)C2)[C@H](O)[C@H](O)[C@H]1O (stereo partly drawn) | normalized growth | 0.987 (inactive) |
| C[C@]12CCC3C(CC[C@]4(O)C[C@@H](O)CC[C@]34C=O)[C@@]1(O)CCC2C1=CC(=O)OC1 (stereo partly drawn) | normalized growth | 1 (inactive) |
| COc1ccc(-c2cc(=O)c3c(O)cc(O)c(-c4cc(-c5cc(=O)c6c(O)cc(O)cc6o5)ccc4OC)c3o2)cc1 | normalized growth | 1.02 (inactive) |
| CC1(C)S[C@@H]2C(N3C(=O)[C@@H](c4ccccc4)NC3(C)C)C(=O)N2[C@H]1C(=O)O (stereo partly drawn) | normalized growth | 1.02 (inactive) |
| COP(N)(=O)SC (stereo not drawn) | normalized growth | 1 (inactive) |
| CCn1nc(C(=O)O)c(=O)c2cc3c(cc21)OCO3 | normalized growth | 1.01 (inactive) |
| COc1cc(C(=O)N2CCOCC2)cc(OC)c1OC | normalized growth | 0.984 (inactive) |
| C[C@@H]1CCC2[C@](C)(CO)[C@@H](O)CC[C@]2(C)[C@@]12CC[C@@](CO)(CCO)O2 (stereo partly drawn) | normalized growth | 0.974 (inactive) |
| N#Cc1c(Cl)cccc1Cl | normalized growth | 0.975 (inactive) |
| NCC(O)CC(=O)O (stereo not drawn) | normalized growth | 0.979 (inactive) |
| NS(=O)(=O)c1cc2c(cc1C(F)(F)F)NC(Cc1ccccc1)NS2(=O)=O (stereo not drawn) | normalized growth | 0.986 (inactive) |
| CC1(C)[C@@H]2CC[C@@]1(C)C(=O)C2 | normalized growth | 1.02 (inactive) |
| CC1(C)C(O)CC(=O)C2(C)C1CC(O)C1(C)C2CCC2(C)C(c3ccoc3)OC(=O)C3OC321 (stereo not drawn) | normalized growth | 0.999 (inactive) |
| CCC(=O)NCC[C@@H]1CCc2ccc3c(c21)CCO3 | normalized growth | 1.01 (inactive) |
| CC12CCC(=O)C=C1CCc1ccccc12 (stereo not drawn) | normalized growth | 0.972 (inactive) |
| O=C(O)CCc1nc(-c2ccccc2)c(-c2ccccc2)o1 | normalized growth | 0.98 (inactive) |
| CCC(=O)OCC(=O)[C@@]1(OC(=O)CC)[C@@H](C)CC2C3CCC4=CC(=O)C=C[C@]4(C)C3(F)[C@@H](O)C[C@@]21C (stereo partly drawn) | normalized growth | 0.998 (inactive) |
| Cc1c(OCC(F)(F)F)ccnc1CS(=O)c1nc2ccccc2[nH]1 (stereo not drawn) | normalized growth | 1.02 (inactive) |
| COc1cccc2c1CCC1=CC(=O)CC[C@@]12C | normalized growth | 1.02 (inactive) |
| CCCCCC(O)C1C(=O)OC(C)C(O)/C=C/C=C/C=C/C=C/C=C(\C)C(O)CC(O)CC(O)CC(O)CC(O)CC(O)CC1O (stereo not drawn) | normalized growth | 0.985 (inactive) |
| NC[C@H]1O[C@H](O[C@H]2[C@H](O)[C@@H](O[C@H]3O[C@H](CO)[C@@H](O)[C@H](N)[C@H]3O)[C@H](N)C[C@@H]2N)[C@H](N)[C@@H](O)[C@@H]1O | normalized growth | 1.01 (inactive) |
| COc1ccccc1N1CCN(CCCNc2cc(=O)n(C)c(=O)n2C)CC1 | normalized growth | 1.02 (inactive) |
| C[C@H]1O[C@@H](O[C@H]2[C@@H](O)C[C@H](O[C@H]3[C@@H](O)C[C@H](O[C@H]4CC[C@]5(C)C6C[C@@H](O)[C@]7(C)[C@@H](C8=CC(=O)OC8)CC[C@]7(O)C6CC[C@@H]5C4)O[C@@H]3C)O[C@@H]2C)C[C@H](O)[C@@H]1O (stereo partly drawn) | normalized growth | 1 (inactive) |
| CC(=O)OC1CC[C@@]2(C)C(CCC3C2CC[C@]2(C)C(C4=CC(=O)OC4)C(OC(C)=O)CC32O)C1 (stereo partly drawn) | normalized growth | 0.971 (inactive) |
| CC(=O)OCC(=O)[C@@]1(O)CCC2C3C[C@H](C)C4=CC(=O)C=CC4(C)C3[C@@H](O)CC21C (stereo partly drawn) | normalized growth | 0.999 (inactive) |
| CC1Cc2ccccc2N1NC(=O)c1ccc(Cl)c(S(N)(=O)=O)c1 (stereo not drawn) | normalized growth | 1.01 (inactive) |
